measurement-protocol: in vitro
test-context: human, hela cells, % viability
readout-name: viability at 28.5 h, 10 µM (%)

> print(dat)
                                   compound                readout.name  units.of.measure  recorded.measurement
1  CC(=O)N[C@@H](Cc1c[nH]cn1)C(=O)N1CC[C@H]2NC(=O)[C@H](Cc3ccccc3)NC(=O)C3(C/C=C/C[C@H]2C1)CCOCC3 [CBK292206]  viability at 28.5 h, 10 µM                 %                   116
2  Clc1cc2nc(Sc3ccccn3)c(N3CCCC3)nc2cc1Cl [CBK093754]  viability at 28.5 h, 10 µM                 %                   100
3     CN1CCN(C(=S)SCC(=O)O)CC1 [CBK261549C]  viability at 28.5 h, 10 µM                 %                  92.8
4  COc1ccccc1CNc1ccc(C(=O)O)cc1 [CBK078187]  viability at 28.5 h, 10 µM                 %                   106
5  C=CCn1c(-c2sc(NC(=O)CCc3ccco3)nc2C)n[nH]c1=S [CBK295312]  viability at 28.5 h, 10 µM                 %                  89.4

Values from paper PMC12040169
